Cited source for all entries: paper PMC4911243

# target-desc: Notch1 (NICD) (Homo sapiens, UniProt P46531)
# Sequence (P46531 1754-2555 limits assumed): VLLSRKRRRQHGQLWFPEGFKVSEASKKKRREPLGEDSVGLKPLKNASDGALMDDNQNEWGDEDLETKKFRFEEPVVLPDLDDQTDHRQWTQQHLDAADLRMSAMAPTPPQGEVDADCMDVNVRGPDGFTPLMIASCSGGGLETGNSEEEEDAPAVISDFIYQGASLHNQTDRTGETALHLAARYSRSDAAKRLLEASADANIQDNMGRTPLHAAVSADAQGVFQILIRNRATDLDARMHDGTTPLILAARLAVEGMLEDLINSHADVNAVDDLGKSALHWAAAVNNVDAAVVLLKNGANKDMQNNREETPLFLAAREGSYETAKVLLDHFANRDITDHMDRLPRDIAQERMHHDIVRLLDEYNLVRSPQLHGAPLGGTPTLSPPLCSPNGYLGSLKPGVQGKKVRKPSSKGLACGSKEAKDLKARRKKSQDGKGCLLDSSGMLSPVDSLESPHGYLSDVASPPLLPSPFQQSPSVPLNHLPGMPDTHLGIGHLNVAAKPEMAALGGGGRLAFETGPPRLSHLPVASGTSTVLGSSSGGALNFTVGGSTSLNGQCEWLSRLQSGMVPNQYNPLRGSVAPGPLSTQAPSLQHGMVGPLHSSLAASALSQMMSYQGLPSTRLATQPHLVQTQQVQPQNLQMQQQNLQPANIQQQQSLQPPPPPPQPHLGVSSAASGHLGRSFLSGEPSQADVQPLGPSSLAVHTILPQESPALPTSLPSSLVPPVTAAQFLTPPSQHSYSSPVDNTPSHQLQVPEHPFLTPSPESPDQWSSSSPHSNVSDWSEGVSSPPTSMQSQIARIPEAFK
measurement-kind: Kd (nM)

| smiles-data | endpoint-value |
| --- | --- |
| COc1cc(/C=C2/SC(=S)NC2=O)ccc1OCC(=O)O | 2900 |
